# targetEntity: HLA-A*23:01
# testSummary: IEDB peptide-MHC binding, purified MHC/direct/fluorescence; filed as Kd, often an IC50 or EC50 that approximates it; bounds were set here for any values at or beyond the usual limits of such assays
# condition: source organism: Dengue virus 1 Singapore/S275/1990
endpointLabel: pKd
For clarity, pKd is expressed as the negative log10 of concentration in mol/L.

Qu. I have this sequence here, GFMNEDHWF , and I need its recorded pKd.
Ans. 7.34

---

# targetEntity: HLA-A*24:02
# testSummary: IEDB peptide-MHC binding, purified MHC/competitive/fluorescence; bounds were set here for any values at or beyond the usual limits of such assays
# condition: source organism: Zaire ebolavirus
endpointLabel: log10 IC50 (log10 of the value in µM)
All values: log10 IC50 [µM].

Qu. Return log10 IC50 measured with HLA-A*24:02 given this sequence: APFARLLNL
Ans. 0.74

Qu. Return log10 IC50 measured with HLA-A*24:02 given this sequence: QARFSGLLI
Ans. 1.22

Qu. Return log10 IC50 measured with HLA-A*24:02 given this sequence: IYTSGKRSN
Ans. 0.80

Qu. Return log10 IC50 measured with HLA-A*24:02 given this sequence: GHMMVIFRL
Ans. -0.72

Qu. Return log10 IC50 measured with HLA-A*24:02 given this sequence: AYQGDYKLF
Ans. -0.27

Qu. Return log10 IC50 measured with HLA-A*24:02 given this sequence: NVPGPHRTI
Ans. 0.34

Qu. Return log10 IC50 measured with HLA-A*24:02 given this sequence: MVTLRKERL
Ans. 0.64

Qu. Return log10 IC50 measured with HLA-A*24:02 given this sequence: DYHKILTAG
Ans. 1.60

---

# targetEntity: HLA-A*29:02
# testSummary: IEDB peptide-MHC binding, purified MHC/competitive/radioactivity; filed as Kd, often an IC50 or EC50 that approximates it; bounds were set here for any values at or beyond the usual limits of such assays
# condition: source organism: Mammarenavirus caliense
endpointLabel: Kd

Qu. I have this sequence here, YQPDTGNYI , and I need its recorded Kd.
Ans. ≥ 78.9 µM

---

# targetEntity: HLA-B*39:01
# testSummary: IEDB peptide-MHC binding, purified MHC/direct/fluorescence; filed as Kd, often an IC50 or EC50 that approximates it; bounds were set here for any values at or beyond the usual limits of such assays
# condition: source organism: Mycobacterium tuberculosis str. Haarlem
endpointLabel: Kd

Qu. I have this sequence here, RLGWRTLDF , and I need its recorded Kd.
Ans. ≥ 20 µM

---

# targetEntity: HLA-A*24:03
# testSummary: IEDB peptide-MHC binding, purified MHC/competitive/fluorescence; filed as Kd, often an IC50 or EC50 that approximates it; bounds were set here for any values at or beyond the usual limits of such assays
# condition: source organism: Orthohantavirus sinnombreense
endpointLabel: pKd
For clarity, pKd is expressed as the negative log10 of concentration in mol/L.

Qu. I have this sequence here, LFPELECFF , and I need its recorded pKd.
Ans. 9.10

---

# targetEntity: HLA-A*11:01
# testSummary: IEDB peptide-MHC binding, purified MHC/direct/fluorescence; filed as Kd, often an IC50 or EC50 that approximates it; bounds were set here for any values at or beyond the usual limits of such assays
# condition: source organism: Giardia lamblia ATCC 50803
endpointLabel: pKd
For clarity, pKd is expressed as the negative log10 of concentration in mol/L.

Qu. I have this sequence here, TTHSKGATK , and I need its recorded pKd.
Ans. 6.61

Qu. I have this sequence here, EIRHRSGIQ , and I need its recorded pKd.
Ans. 5.19
